The origin of these recorded values is ChEMBL document CHEMBL1139829.

# Target Of Assay: Glucocorticoid receptor (Homo sapiens, UniProt P04150)
# Sequence (P04150 whole entry): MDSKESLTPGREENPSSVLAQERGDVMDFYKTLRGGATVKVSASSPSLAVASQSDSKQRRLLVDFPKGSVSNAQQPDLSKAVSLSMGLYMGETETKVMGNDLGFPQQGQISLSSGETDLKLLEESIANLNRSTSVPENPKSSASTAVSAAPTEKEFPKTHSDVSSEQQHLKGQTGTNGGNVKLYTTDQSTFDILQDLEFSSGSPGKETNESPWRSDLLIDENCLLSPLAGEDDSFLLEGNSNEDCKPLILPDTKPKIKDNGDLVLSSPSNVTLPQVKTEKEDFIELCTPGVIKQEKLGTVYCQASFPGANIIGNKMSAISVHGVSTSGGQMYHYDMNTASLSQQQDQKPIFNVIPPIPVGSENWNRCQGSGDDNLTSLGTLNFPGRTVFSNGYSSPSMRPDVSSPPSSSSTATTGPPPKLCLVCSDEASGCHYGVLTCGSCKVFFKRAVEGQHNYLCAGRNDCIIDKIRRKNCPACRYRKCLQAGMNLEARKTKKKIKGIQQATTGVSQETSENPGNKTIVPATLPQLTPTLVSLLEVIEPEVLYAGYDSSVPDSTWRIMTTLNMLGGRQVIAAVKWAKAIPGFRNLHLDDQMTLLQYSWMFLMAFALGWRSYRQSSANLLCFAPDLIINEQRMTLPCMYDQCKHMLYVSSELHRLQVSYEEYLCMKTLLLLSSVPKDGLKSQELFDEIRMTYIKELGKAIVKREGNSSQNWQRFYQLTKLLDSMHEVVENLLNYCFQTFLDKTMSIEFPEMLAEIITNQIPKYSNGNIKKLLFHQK
# Protocol Description: Displacement of [3H]dexamethasone from human glucocorticoid receptor expressed in recombinant baculovirus
Experimental Endpoint: Ki (nM)
One number for each entry, in nM.

Some compounds with known Ki results, for comparison:
O=C1C=C2CCN(Cc3ccccc3)CC2(Cc2ccccc2)CC1 (racemic): 3700
CC(C)(C)c1ccc(S(=O)(=O)N2CCC3=CC(=O)CCC3(Cc3ccc(F)cc3)C2)cc1 (racemic): 5
CC#C[C@@]1(O)CC[C@@]2(Cc3ccccc3)c3ccc(O)cc3CC[C@@H]2C1: 0.6
N#Cc1ccccc1S(=O)(=O)N1CCC2=CC(=O)CCC2(Cc2ccccc2)C1 (racemic): 1000
CN(C)S(=O)(=O)Nc1ccc(CC23CCC(=O)C=C2CCN(S(=O)(=O)c2ccc(C(C)(C)C)cc2)C3)cc1 (racemic): 13
CS(=O)(=O)Nc1cccc(S(=O)(=O)N2CCC3=CC(=O)CCC3(Cc3ccccc3)C2)c1 (centres undefined): 2100

// next item, Ki requested
Noted for CC(C)(C)c1ccc(S(=O)(=O)N2CCC3=CC(=O)CCC3(Cc3ccc(C#N)cc3)C2)cc1 (racemic) : its Ki reads 65
